Cited source: patent US20260258035A1

For each of the molecules below, state its IC50.
tested target: PARG (Homo sapiens)
protocol description: Biochemical assay (PARG, TFMU-ADPr substrate)
condition notes: PARG, TFMU-ADPr substrate
Please format your answer as a value with the unit trailing.

Which IC50 reading was recorded for the molecule CC1(C(=O)N2CCN(c3cc(S(=O)(=O)NC4(C#N)CC4)cn4c(-c5nnc(C(F)(F)F)s5)ncc34)CC2)CC1 ?
7.94 nM

Which IC50 reading was recorded for the molecule N#CC1(NS(=O)(=O)c2cc(NC3CCC(OC(F)(F)F)C3)c3cnc(-c4nnc(C(F)F)s4)n3c2)CC1 (stereo not shown) ?
178 nM

Which IC50 reading was recorded for the molecule O=S(=O)(NC1(CF)CC1)c1cc(N2CCC(CO)CC2)c2nnc(-c3nnc(C(F)F)s3)n2c1 ?
1.5 nM

Which IC50 reading was recorded for the molecule CC(C)C(=O)N1CCN(c2cc(S(=O)(=O)NC3(C)CC3)cn3c(-c4nnc(C(F)F)s4)nnc23)CC1 ?
6.51 nM

###

tested target: PARG (Homo sapiens)
protocol description: Biochemical assay (PARG, TFMU-ADPr substrate)
condition notes: PARG, TFMU-ADPr substrate
measured quantity: log10(IC50) (log10 of the value in nM)
Reminder: these figures are log10 of reported IC50, in nM before transformation.

Which log10(IC50) reading was recorded for the molecule C[C@@H]1CN(c2cc(S(=O)(=O)NC3(C#N)CC3)cn3c(-c4nnc(C(F)(F)F)s4)ncc23)CCN1C(=O)C1CCO1 (some centres unmarked) [Example 302] ?
1.19

Which log10(IC50) reading was recorded for the molecule N#CC1(NS(=O)(=O)c2cc(N3CCN(C(=O)C4CCO4)CC3)c3cnc(-c4nnc(C(F)(F)F)s4)n3c2)CC1 (centres unmarked) [Example 236] ?
0.58

Which log10(IC50) reading was recorded for the molecule CC1(NS(=O)(=O)c2cc(N3CCN(C(=O)[C@H]4CCCN4)CC3)c3cnc(-c4nnc(C(F)(F)F)s4)n3c2)CC1 [Example 324] ?
0.63

Which log10(IC50) reading was recorded for the molecule COCC1CN(c2cc(S(=O)(=O)NC3(C)COC3)cn3c(-c4nnc(C(F)(F)F)s4)nc(Cl)c23)CCN1 (centres unmarked) [Example 135] ?
1.10

Which log10(IC50) reading was recorded for the molecule CC(C)C(=O)N1CCN(c2cc(S(=O)(=O)NC3(C(F)F)CC3)cn3c(-c4nnc(C(F)F)s4)ncc23)CC1 [Example 33] ?
0.81

Which log10(IC50) reading was recorded for the molecule N#CC1(NS(=O)(=O)c2cc(N3CCN(C(=O)[C@@H]4CCNC4)CC3)c3cnc(-c4nnc(C(F)(F)F)s4)n3c2)CC1 [Example 271] ?
1.06

Which log10(IC50) reading was recorded for the molecule CC(C)C(=O)N1CCN(c2cc(S(=O)(=O)NC3(C)CC3)cn3c(-c4nnc(C(F)F)s4)nc(C#N)c23)CC1 [Example 163] ?
0.20

Which log10(IC50) reading was recorded for the molecule CC(=O)N1CCN(c2cc(S(=O)(=O)NC3(C#N)CC3)cn3c(-c4nnc(C(F)(F)F)s4)ncc23)CC1 [Example 173] ?
1.70

Which log10(IC50) reading was recorded for the molecule N#CC1(NS(=O)(=O)c2cc(N3CCN(C(=O)C4COC4)CC3)c3cnc(-c4nnc(C(F)(F)F)s4)n3c2)CC1 [Example 226] ?
1.42

Which log10(IC50) reading was recorded for the molecule N#CC1(NS(=O)(=O)c2cc(-c3ccc4c(c3)CCO4)c3cnc(-c4nnc(C(F)F)s4)n3c2)CC1 [Example 140] ?
1.42

Which log10(IC50) reading was recorded for the molecule N#CC1(NS(=O)(=O)c2cc(N3CCN(C(=O)C4CNC4)CC3)c3cnc(-c4nnc(C(F)(F)F)s4)n3c2)CC1 [Example 251] ?
0.78

Which log10(IC50) reading was recorded for the molecule CC(C)C(=O)N1CCN(c2cc(S(=O)(=O)NC3CC3)cn3c(-c4nnc(C(F)(F)F)s4)nc(Cl)c23)CC1 [Example 121] ?
1.78

Which log10(IC50) reading was recorded for the molecule N#CC1(NS(=O)(=O)c2cc(N3CCN(C(=O)CO)CC3)c3cnc(-c4nnc(C(F)(F)F)s4)n3c2)CC1 [Example 276] ?
1.66

Which log10(IC50) reading was recorded for the molecule COC1(C(=O)N2[C@@H](C)CN(c3cc(S(=O)(=O)NC4(C)COC4)cn4c(-c5nnc(C(F)F)s5)ncc34)C[C@@H]2C)CC1 [Example 399] ?
1.10

###

For each of the compounds below, state its PXR Activation @30 uM (% Ctrl).
tested target: PXR (Homo sapiens, UniProt O75469)
Construct: host or cells: DPX2 (HepG2)
Sequence (O75469 1-434): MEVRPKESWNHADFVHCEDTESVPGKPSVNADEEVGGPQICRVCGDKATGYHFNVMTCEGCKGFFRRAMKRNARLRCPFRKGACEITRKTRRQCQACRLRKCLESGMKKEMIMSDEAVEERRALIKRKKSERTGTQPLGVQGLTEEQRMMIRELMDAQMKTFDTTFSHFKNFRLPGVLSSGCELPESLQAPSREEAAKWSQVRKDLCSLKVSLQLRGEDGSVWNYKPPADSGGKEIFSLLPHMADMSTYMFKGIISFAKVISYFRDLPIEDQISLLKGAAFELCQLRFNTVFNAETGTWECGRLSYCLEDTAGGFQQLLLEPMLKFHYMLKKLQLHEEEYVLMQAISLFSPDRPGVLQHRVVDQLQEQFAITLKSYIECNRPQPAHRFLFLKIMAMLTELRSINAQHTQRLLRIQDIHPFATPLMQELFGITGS
protocol description: PXR assay (DPX2 luciferase reporter cells)
Type: cell-based
condition notes: 24 h, positive control rifampicin
API: value field is a number in % Ctrl; no unit string.

Which PXR Activation @30 uM (% Ctrl) reading was recorded for the compound N#CC1(NS(=O)(=O)c2cc(N3CCN(C(=O)c4ccncc4)CC3)c3cnc(-c4nnc(C(F)(F)F)s4)n3c2)CC1 ?
12

Which PXR Activation @30 uM (% Ctrl) reading was recorded for the compound COC1(C(=O)N2CCN(c3cc(S(=O)(=O)NC4(C)CC4)cn4c(-c5nnc(C(F)F)s5)ncc34)CC2)CNC1 ?
5

Which PXR Activation @30 uM (% Ctrl) reading was recorded for the compound CN1CC[C@H]1C(=O)N1CCN(c2cc(S(=O)(=O)NC3(C)CC3)cn3c(-c4nnc(C(F)(F)F)s4)ncc23)CC1 ?
10

Which PXR Activation @30 uM (% Ctrl) reading was recorded for the compound CC1(NS(=O)(=O)c2cc(N3CCN(c4ccc[nH]c4=O)CC3)c3cnc(-c4nnc(C(F)(F)F)s4)n3c2)CC1 ?
2

Which PXR Activation @30 uM (% Ctrl) reading was recorded for the compound CC1(NS(=O)(=O)c2cc(N3CCN(C(=O)[C@@H]4CCN4)CC3)c3cnc(-c4nnc(C(F)(F)F)s4)n3c2)CC1 ?
7

Which PXR Activation @30 uM (% Ctrl) reading was recorded for the compound CC1(NS(=O)(=O)c2cc(N3CCN(C(=O)[C@H]4CCCN4)CC3)c3cnc(-c4nnc(C(F)(F)F)s4)n3c2)CC1 ?
14

Which PXR Activation @30 uM (% Ctrl) reading was recorded for the compound CC(C)C(=O)N1CCN(c2cc(S(=O)(=O)NC3(C#N)CC3)cn3c(-c4nnc(C(F)F)s4)ncc23)CC1 ?
19

###

tested target: PARG (Homo sapiens, UniProt Q86W56)
Sequence (Q86W56 whole entry): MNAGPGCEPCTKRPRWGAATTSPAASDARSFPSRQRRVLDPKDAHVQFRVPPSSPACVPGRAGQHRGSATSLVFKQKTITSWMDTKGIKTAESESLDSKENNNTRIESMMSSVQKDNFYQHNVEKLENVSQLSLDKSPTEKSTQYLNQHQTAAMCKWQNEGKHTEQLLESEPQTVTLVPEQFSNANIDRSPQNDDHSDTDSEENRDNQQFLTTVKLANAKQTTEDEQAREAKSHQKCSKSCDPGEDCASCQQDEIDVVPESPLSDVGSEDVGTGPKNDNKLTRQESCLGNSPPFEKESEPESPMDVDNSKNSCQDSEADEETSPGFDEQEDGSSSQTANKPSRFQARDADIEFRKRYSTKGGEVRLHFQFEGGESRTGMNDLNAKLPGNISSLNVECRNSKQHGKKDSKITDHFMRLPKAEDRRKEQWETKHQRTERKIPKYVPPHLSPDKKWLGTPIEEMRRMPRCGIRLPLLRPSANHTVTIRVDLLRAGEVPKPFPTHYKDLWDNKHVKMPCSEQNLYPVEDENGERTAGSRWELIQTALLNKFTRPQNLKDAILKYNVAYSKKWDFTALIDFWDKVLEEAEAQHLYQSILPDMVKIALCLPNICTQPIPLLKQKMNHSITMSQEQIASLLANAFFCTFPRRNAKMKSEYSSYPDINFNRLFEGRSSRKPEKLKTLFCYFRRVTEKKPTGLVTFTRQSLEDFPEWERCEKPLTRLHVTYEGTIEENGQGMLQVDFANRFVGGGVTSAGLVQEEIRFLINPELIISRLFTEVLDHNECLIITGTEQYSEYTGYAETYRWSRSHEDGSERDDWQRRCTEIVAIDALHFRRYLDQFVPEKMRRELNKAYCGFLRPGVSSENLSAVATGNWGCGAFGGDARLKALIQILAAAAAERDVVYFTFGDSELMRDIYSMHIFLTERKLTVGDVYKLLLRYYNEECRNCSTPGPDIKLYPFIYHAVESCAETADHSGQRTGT
protocol description: Biochemical assay (PARG, TFMU-ADPr substrate)
condition notes: PARG, TFMU-ADPr substrate
For each of the compounds below, state its IC50.
Please format your answer as a value with the unit trailing.

Which IC50 reading was recorded for the compound Cn1nccc1C1CCC(c2cc(S(=O)(=O)NC3(C#N)CC3)cn3c(-c4nnc(C(F)F)s4)nnc23)C1 (stereo not shown) ?
27.7 nM

Which IC50 reading was recorded for the compound CN1CC2CN(c3cc(S(=O)(=O)NC4(C)COC4)cn4c(-c5nnc(C(F)(F)F)s5)ncc34)CCN2C(=O)C12CC2 (stereo not shown) ?
5.75 nM

Which IC50 reading was recorded for the compound N#CC1(NS(=O)(=O)c2cc(-c3ccc(OC(F)(F)F)cc3)c3cnc(-c4nnc(C(F)F)s4)n3c2)CC1 ?
280 nM

Which IC50 reading was recorded for the compound CC(C)OC1(C(=O)N2CCN(c3cc(S(=O)(=O)NC4(C)CC4)cn4c(-c5nnc(C(F)(F)F)s5)ncc34)CC2)CC1 ?
1.16 nM

Which IC50 reading was recorded for the compound C[C@@H]1CN(c2cc(S(=O)(=O)NC3(C#N)CC3)cn3c(-c4nnc(C(F)F)s4)ncc23)CCN1C(=O)C1(C)CC1 ?
3.75 nM

Which IC50 reading was recorded for the compound COC1(C(=O)N2CCN(c3cc(S(=O)(=O)NC4(C)CC4)cn4c(-c5nnc(C(F)(F)F)s5)ncc34)CC2)CCC1 ?
0.15 nM

Which IC50 reading was recorded for the compound CC1(NS(=O)(=O)c2cc(N3CCNC4(CC4)C3)c3cnc(-c4nnc(C(F)F)s4)n3c2)COC1 ?
8.58 nM
